- System: KBM-3
- protocol-text: CellTiter-Glo cell viability, 72 h, single agents and combination dose matrix
- Type: cell-based
- study-conditions: KBM-3, single agent, Example 4
endpoint-name: IC50 (nM)
Answer in nM, number only, no unit symbol.

Quick note, IC50 for COc1ccccc1-c1nccc(COc2ccccc2CC(Oc2ncnc3sc(-c4ccc(F)cc4)c(-c4ccc(OCCN5CCN(C)CC5)c(Cl)c4C)c23)C(=O)O)n1 (stereo in doubt) landed at 40

* * *

- System: SKM-1
- protocol-text: CellTiter-Glo cell viability, 72 h, single agents and combination dose matrix
- Assay type: cell-based
- study-conditions: SKM-1 (MDS/AML, p53 R248Q homo/hemizygous), single agent, separate study of Example 3
- Procedure: For SKM-1, RPMI (R8758, Sigma Aldrich)+20% FBS (F0804, Sigma Aldrich), heat inactivated at 56° C. for 60 min. 75 cm^2 flask (100% confluent) cells was transfer to a 15 ml tube and centrifuged at 1000 RPM for 5 min. […] The cells were counted in the TC20 automated cell counter. […] The CellTiter-Glo® Luminescent Cell Viability Assay is a homogeneous method of determining the number of viable cells in culture based on quantitation of the ATP present, an indicator of metabolically active cells. […]
endpoint-name: IC50 (nM)
Field format: number, assumed nM, no unit text.

The molecule identified as O=C1C2CCN(CC2)C1CNC(=O)C(F)(F)F (stereo not shown) [Compound A] registered its IC50 at 660

* * *

- Test system: MV4-11
- protocol-text: CellTiter-Glo cell viability, 72 h, single agents and combination dose matrix
- Assay type: cell-based
- study-conditions: Homo sapiens, MV4-11, single agent, Example 4
endpoint-name: IC50
Report as: number unit

The molecule listed as COc1ccccc1-c1nccc(COc2ccccc2CC(Oc2ncnc3sc(-c4ccc(F)cc4)c(-c4ccc(OCCN5CCN(C)CC5)c(Cl)c4C)c23)C(=O)O)n1 (stereo in doubt) has a reported IC50 of 1.4 nM

* * *

- Test system: AML cell lines
- protocol-text: CellTiter-Glo cell viability, results summarised over the cell line panel
- study-conditions: read-out: IC50 values, range over cell lines; single agent; cell lines of Table 3
endpoint-name: IC50

// field: IC50; key: CC1(C)CCC(CN2CCN(c3ccc(C(=O)NS(=O)(=O)c4ccc(NCC5CCOCC5)c([N+](=O)[O-])c4)c(Oc4cnc5[nH]ccc5c4)c3)CC2)=C(c2ccc(Cl)cc2)C1 ; value = 1 to 1500 nM

* * *

- Tested on: HL-60
- protocol-text: CellTiter-Glo cell viability, 72 h, single agents and combination dose matrix
- Assay type: cell-based
- study-conditions: Homo sapiens, HL-60, single agent, Example 4
endpoint-name: pIC50
// returns pIC50 (minus log10 of molar concentration), number only

Just so you know, measured pIC50 for COc1ccccc1-c1nccc(COc2ccccc2CC(Oc2ncnc3sc(-c4ccc(F)cc4)c(-c4ccc(OCCN5CCN(C)CC5)c(Cl)c4C)c23)C(=O)O)n1 (stereo in doubt) came out at 8.15
